- methodNotes: RP, Thermo Scientific Acclaim RSLC 120 C18, 100 × 2.1 mm, 2.2 µm, 30 °C, 0.2 mL/min, estimated dead time 1.1 min; A: 90% water + 10% methanol + 0.01% formic acid + 5 mM ammonium formate, pH 3.61; B: methanol + 0.01% formic acid + 5 mM ammonium formate, pH 3.61; gradient (min/%B) 0/1 1/1 2/39 13/99.9 15/99.9 15.1/1 20.1/1
- statedConditions: stereoisomer not certain
propertyMeasured: LC retention time (min)

molecule	propertyMeasured	unitAnnotation	readoutNumber
O=C(c1ccc(Cl)cc1)c1ccc(Cl)cc1	LC retention time	min	11.9
O=C(O)COCCN1CCN(C(c2ccccc2)c2ccc(Cl)cc2)CC1 (stereo not drawn)	LC retention time	min	8.79
Nc1c(Br)cc(Br)cc1CNC1CCC(O)CC1 (stereo not drawn)	LC retention time	min	6.04
